test: Solubility in solvents by UHPLC assay; type: physicochemical; conditions: n-heptane, 30 °C, organic solvent or mixture, n-heptane, 30 °C; read-out: Solubility
Measured parameter: solubility

Query string: I would be grateful if you could share the reported solubility for CS(=O)(=O)c1ccc(C2=C(c3ccccc3)C(=O)OC2)cc1 .
Result string: < 100 µg/mL

====

assay: Solubility in solvents by UHPLC assay; format: physicochemical; conditions: chlorobenzene, 30 °C, organic solvent or mixture, Chlorobenzene, 30 °C; read-out: Solubility
Measured parameter: solubility (µg/mL)
Supply the numeric figure in µg/mL, leaving out any unit text.

Query string: I would be grateful if you could share the reported solubility for CS(=O)(=O)c1ccc(C2=C(c3ccccc3)C(=O)OC2)cc1 .
Result string: 2300

====

Experiment: Solubility in solvents by UHPLC assay
Assay type: physicochemical
Conditions: ethanol, 30 °C, organic solvent or mixture, Table 10: Ethanol, 30 °C; read-out: Solubility
Experimental: The tool called “Early phase solvent selection: solubility prediction” was used. This tool allows to predict the solubility of material in a large scope of solvents, knowing the solubility in some of them. […] Since the main purpose of the recrystallization is to decrease the rate of one single identified impurity, 4-[4-(methylsulfinyl)phenyl]-3-phenyl-2(5H)-furanone solubilities were measured in a couple of probable antisolvents identified in Table 9. […]
Measured parameter: solubility (mg/mL)
Supply the numeric figure in mg/mL, leaving out any unit text.

Query string: I would be grateful if you could share the reported solubility for C[S+]([O-])c1ccc(C2=C(c3ccccc3)C(=O)OC2)cc1 (stereo not shown) [A-STG4-01] .
Result string: 28

====

assay: Solubility in solvents by UHPLC assay; type: physicochemical; details: acetone, 30 °C, organic solvent or mixture, Acetone, 30 °C; read-out: Solubility
Measured parameter: solubility (mg/mL)
Supply the numeric figure in mg/mL, leaving out any unit text.

Query string: I would be grateful if you could share the reported solubility for CS(=O)(=O)c1ccc(C2=C(c3ccccc3)C(=O)OC2)cc1 .
Result string: 28

====

assay: Solubility in solvents by UHPLC assay; format: physicochemical; conditions: water, 30 °C, water, Table 10: Water, 30 °C; read-out: Solubility
Measured parameter: solubility (µg/mL)
Supply the numeric figure in µg/mL, leaving out any unit text.

Query string: I would be grateful if you could share the reported solubility for C[S+]([O-])c1ccc(C2=C(c3ccccc3)C(=O)OC2)cc1 (stereo not shown) .
Result string: 700

====

assay: Solubility in solvents by UHPLC assay; assay type: physicochemical; settings: water, 30 °C, water, 30 °C; read-out: Solubility
Measured parameter: solubility

Query string: I would be grateful if you could share the reported solubility for CS(=O)(=O)c1ccc(C2=C(c3ccccc3)C(=O)OC2)cc1 [Rofecoxib] .
Result string: < 100 µg/mL

====

assay: Solubility in solvents by UHPLC assay; format: physicochemical; conditions: toluene, 30 °C, organic solvent or mixture, Toluene, 30 °C; read-out: Solubility
Measured parameter: solubility (µg/mL)
Supply the numeric figure in µg/mL, leaving out any unit text.

Query string: I would be grateful if you could share the reported solubility for CS(=O)(=O)c1ccc(C2=C(c3ccccc3)C(=O)OC2)cc1 .
Result string: 1200

====

test: Solubility in solvents by UHPLC assay; format: physicochemical; conditions: acetonitrile, 30 °C, organic solvent or mixture, Acetonitrile, 30 °C; read-out: Solubility
Measured parameter: solubility (mg/mL)
Supply the numeric figure in mg/mL, leaving out any unit text.

Query string: I would be grateful if you could share the reported solubility for CS(=O)(=O)c1ccc(C2=C(c3ccccc3)C(=O)OC2)cc1 [Rofecoxib] .
Result string: 41
